These measurements were taken from PubChem BioAssay (NCI).

- Test system: MDA-MB-231 breast
- PROTOCOL_DESCRIPTION: NCI-60 one-dose screen, 48 h (100 = growth as untreated, 0 = no growth, -100 = all killed)
- CONDITION_DESCRIPTION: 10 µM
This is part of a sample that, as a whole, favours compounds with a hit. Of some 83,000 tested, about 20% had one in any assay.

LINE_NOTATION	growth / %
C=C(c1ccc(OC)c(N)c1)c1cc(C)nc2ccccc12	10.5
C=C[C@@]12CN3CC[C@]1(O)[C@@](C(=O)OC)(CO2)c1[nH]c2ccccc2c1C3	76.9
CCCCCCCCCCCCCCCCCCCC(=O)NCCc1c[nH]c2ccc(O)cc12	78
